Quick reference: EC50 of the listed items.
# Tested on: SK-BR-3
# assay_explanation: Antiproliferative activity against human SK-BR-3 cells with low HGPRT expression incubated for 48 hrs by CellTiter-Glo2 assay
# Format: functional, cell-based
# condition_info: SK-BR-3, 48 h
Supply the numeric figure in µM, leaving out any unit text.

Observe how each entry below is paired with its result.
• CC(=O)Oc1ccc(COP(=O)(OCc2ccc(OC(C)=O)cc2)OC[C@H]2O[C@@H](n3cnc4c(SCc5ccc(OC(C)=O)cc5)nc(N)nc43)[C@H](O)[C@@H]2O)cc1 = 3.5
• Nc1nc2c(ncn2[C@@H]2O[C@H](COP3(=O)OCc4cc(Cl)ccc4O3)[C@@H](O)[C@H]2O)c(=S)[nH]1 (some centres undefined) = 42
• Nc1nc2c(ncn2[C@@H]2O[C@H](COP3(=O)OCc4ccccc4O3)[C@@H](O)[C@H]2O)c(=S)[nH]1 (some centres undefined) = 25

EC50 in this record for "CC(=O)Oc1ccc(COP(=O)(O)OC[C@H]2O[C@@H](n3cnc4c(=S)[nH]c(N)nc43)[C@H](O)[C@@H]2O)cc1" : 201
